Target: human M4 receptor (Homo sapiens, UniProt P08173)
Construct: expressed in transfected cells; host or cells: CHO cells
Sequence (P08173 whole entry): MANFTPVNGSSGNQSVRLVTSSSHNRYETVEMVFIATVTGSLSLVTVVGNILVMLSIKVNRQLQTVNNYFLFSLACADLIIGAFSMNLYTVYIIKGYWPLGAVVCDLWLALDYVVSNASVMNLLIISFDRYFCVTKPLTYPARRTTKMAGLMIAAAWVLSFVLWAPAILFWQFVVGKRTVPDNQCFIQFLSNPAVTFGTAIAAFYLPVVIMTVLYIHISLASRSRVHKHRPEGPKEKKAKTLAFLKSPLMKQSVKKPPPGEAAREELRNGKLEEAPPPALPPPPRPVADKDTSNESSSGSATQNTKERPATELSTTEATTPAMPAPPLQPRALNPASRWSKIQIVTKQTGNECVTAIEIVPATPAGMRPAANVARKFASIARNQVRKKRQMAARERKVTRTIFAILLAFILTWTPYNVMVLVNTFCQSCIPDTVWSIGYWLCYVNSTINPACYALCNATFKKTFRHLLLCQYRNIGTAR
Assay: Radioligand ([3H]N-methylscopolamine) binding assay, membranes from CHO cells expressing human M4 receptor
Details: Ki against human M4 receptor; membranes from CHO cells; tritiated N-methylscopolamine 1.5 nM; read-out: K
measured.property: Ki

Query: Look up and report measured Ki (human M4 receptor (Homo sapiens, UniProt P08173)) for the following molecule: COc1ccc(CN2CC3(CC(NC(=O)N4[C@H](C)CN(c5ncc(C(F)(F)F)cn5)C[C@@H]4C)C3)C2)cn1 [Compound 305]
Response: 10 to 100 nM

Query: Look up and report measured Ki (human M4 receptor (Homo sapiens, UniProt P08173)) for the following molecule: C[C@@H]1CN(c2nc3ccc(F)cc3s2)CCN1C(=O)NC1CC2(C1)CN(Cc1ccccc1)C2 [Compound 234]
Response: < 10 nM

Query: Look up and report measured Ki (human M4 receptor (Homo sapiens, UniProt P08173)) for the following molecule: C[C@@H]1CN(c2cnc(C(F)(F)F)cn2)C[C@@H](C)N1C(=O)NCC1CC2(C1)CN(Cc1ccccc1)C2 [Compound 63]
Response: 100 to 1000 nM

Query: Look up and report measured Ki (human M4 receptor (Homo sapiens, UniProt P08173)) for the following molecule: C[C@@H]1CN(c2cnc3cc(C(F)(F)F)ccc3n2)C[C@H](C)N1C(=O)NC1CC2(C1)CN(Cc1ccccc1)C2 [Compound 235]
Response: 10 to 100 nM
